Values were extracted from the supplement of paper PMC9170038.

Tested on: MS2 coat protein
EXPERIMENTAL PROTOCOL: apparent KD of MS2 coat protein, switch OFF state (with FMN for OFF switches, without FMN for ON switches); designed switch direction (-1 OFF switch, 1 ON switch): 1; higher = weaker reporter binding
CONDITION: FMN input: 0 or 200 uM; Eterna round: R93 (includes R88 designs)
PROPERTY MEASURED: apparent KD of MS2 coat protein (nM)
Answers are plain numbers, in nM.

Answered cases to consult:
>>> reading("AGGAAACAUGAGGAUCACCCAUGUAAAAGGUGGUUAGGAUAUGCGAAAAGAAAAAGAAAAGCAGAAGGGACAAGAA [Inspired by JR's SameStare1_sub2]")
415
>>> reading("UGGAGACAUGAGGAUCACCCAUGUGAGAAGAGGCGAGGAUAUCGAAAGAAAGAAGAGAAACGAGAAGGCGCGAGUG [salish99-SS1-042]")
46.9
>>> reading("AAAAGACAUGAGGAUCACCCAUGUAAAAACUUGAGAGGAUAUGCUUGGAAAACAUGCUAUGCAGAAGGCUCUAGUC [SS1 - 15]")
26.3
>>> reading("GAGGACAUAGUAUAGGAUAUAUGAAUAAUUACAUGAGGAUCACCCAUGUCCAUUUAUAUGGGAACAUAGAAGGGUGGUAGUUGUC [Mat - Same state - Malcolm Mod - D130]")
200

Provide the reported apparent KD of MS2 coat protein of each entry below, same order.
1. UUACAGCACAGGUAGGAUAUGUAGGGUGGUACAUGAGGAUCACCCAUGUAUCCACCCUUCGAAAGGCAGAAGGGCCUGUCGCUGC [Arsora]
2. AAAUAAAAAAAAAAGGAUAUUCAUGUGAAAACAUGAGGAUCACCCAUGUAAAAAAAUAAAAAUAAAAAGAAGGAAAAAUAAAAAA [SS2: 86 No MS2]

16.8
841

----------
Tested on: MS2 coat protein
EXPERIMENTAL PROTOCOL: apparent KD of MS2 coat protein; designed switch direction (-1 OFF switch, 1 ON switch): -1; higher = weaker reporter binding
CONDITION: input ligand: microRNA oligo, concentration not stated
Note to self: values exactly at 0.04 µM are class 1. So apparent KD of MS2 coat protein at or above 0.04 µM is class 1, below is class 0.

Sample answers from the record:
>>> cat("AUUUUAUAUGAAGGAUAUACUUAACAUGAGGAUCACCCAUGUGGUGUUGUGAGUGAGUGAGUUUAGUAGAAGGUCAAUUAUUUU [JMF's solution 32] (Eterna round: R96, puzzle: Exclusion NG 2)")
"class 1"
>>> cat("UAUAUAUAGUAAGGAUAUGUAUUAAUCUUAUAAACAGAAGGUACUGACAUGAGGAUCACCCAUGUUUUAGUGUGGGCAUGUAGA [JMF's solution 79] (Eterna round: R96, puzzle: Exclusion NG 1)")
"class 1"
>>> cat("GAAAACGCAGAGGAUAUUUCAGAUCAAAGCUGCAAAGAAGGCUGCACAUGAGGAUCACCCAUGUGGUCUUUAAA [Quesina] (Eterna round: R96, puzzle: Exclusion 6)")
"class 0"

Lab note: next sequence to report on.
Has AAAUGACAUGAGGAUCACCCAUGUGGCCCUUAGACUCAUAUCGAGGAUAUCCAGGGCCGGGCCGUGGAGAAGGCGAAUUAAAAU [Edatriusti] (Eterna round: R96, puzzle: Exclusion NG 3) a recorded apparent KD of MS2 coat protein greater than or equal to 0.04 µM?
class 0
